test-description: compounds binding Alexa647 anti-His antibody – biochemical, small-molecule microarray, 635 nm fluorescence, artefact control for SMM control protein annotation, primary screen (AID 1128);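 further: score merges feature fluorescence with signal-to-noise for each printed compound spot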
applied-conditions: higher = more signal
measured-attribute: composite z-score

INSERT INTO measurements (compound, measured_attribute, reported_measurement) VALUES
  ('COc1cc(NN2C(C(O)c3ccc(I)cc3)C=CC3C(=O)N(C)C(=O)C32)cc(OC)c1OC (stereo not given)', 'composite z-score', 2.61),
  ('CCCC=C(CCC)[C@@H](NS(=O)(=O)c1cccc2cccnc12)c1ccc(C(=O)OC)cc1', 'composite z-score', 1.4),
  ('C[N+](C)(C)CCCC[C@@H]1NC(=O)[C@@H]2C[C@H](C(=O)O)[C@H](c3cccc(OCCO)c3)N2C1=O', 'composite z-score', 0.0065),
  ('C=CCN1C(=O)[C@@]2(O[C@@H](CCn3cc([C@H](O)c4ccccc4)nn3)[C@H]([Si](C)(C)c3ccc(OC)cc3)[C@H]2C)c2cc(NC(=O)c3ccc(OC)cc3)ccc21', 'composite z-score', 0.623),
  ('OCCCC1=CC(c2cccs2)N(Cc2cccc(OC(F)(F)F)c2)CC1 (stereo not given)', 'composite z-score', 0.357);
